Biological target: MST1 (Homo sapiens (Human))
Assay: MST1 biochemical LanthaScreen Eu Kinase Binding Assay
Details: read-out: Kinase Binding assay-MST1 IC50
pIC50: −log10 of the molar value.
Quantity Kind: pIC50

# count of solved cases: 6
Mol Smiles: CCOc1cc2ncc(C#N)c(Nc3ccc(OC)c(Cl)c3)c2cc1NC(=O)CCCN(C)C
Assay Value: 5.00 to 6.00

Mol Smiles: CCOc1cc2ncc(C#N)c(Nc3cc(C)c(OCc4ncccc4C)cc3C)c2cc1NC(=O)/C=C/CN(C)C
Assay Value: > 7.00

Mol Smiles: CCOc1cc2ncc(C#N)c(Nc3ccc(NC(C)(C)c4ccccn4)c(Cl)c3)c2cc1NC(=O)CCCN(C)C
Assay Value: 5.00 to 6.00

Mol Smiles: CCOc1cc2ncc(C#N)c(Nc3ccc(OCc4ncccc4C)c(Cl)c3)c2cc1NC(=O)CCCN(C)C
Assay Value: > 7.00

Mol Smiles: CCOc1cc2ncc(C#N)c(Nc3ccc(OCc4ncccc4C)c(C)c3C)c2cc1NC(=O)CCCN(C)C
Assay Value: > 7.00

Mol Smiles: CCOc1cc2ncc(C#N)c(Nc3ccc(OCc4ncccc4Cl)c(Cl)c3)c2cc1NC(=O)CCCN(C)C
Assay Value: > 7.00

Now look at this one.
Recorded pIC50 (molecule CCOc1cc2ncc(C#N)c(Nc3ccc(OCc4cn5cccc(C)c5n4)c(Cl)c3)c2cc1NC(=O)CCCN(C)C ): > 7.00

* * *

Biological target: MST1 (Homo sapiens (Human), UniProt Q13043)
Sequence (Q13043 whole entry): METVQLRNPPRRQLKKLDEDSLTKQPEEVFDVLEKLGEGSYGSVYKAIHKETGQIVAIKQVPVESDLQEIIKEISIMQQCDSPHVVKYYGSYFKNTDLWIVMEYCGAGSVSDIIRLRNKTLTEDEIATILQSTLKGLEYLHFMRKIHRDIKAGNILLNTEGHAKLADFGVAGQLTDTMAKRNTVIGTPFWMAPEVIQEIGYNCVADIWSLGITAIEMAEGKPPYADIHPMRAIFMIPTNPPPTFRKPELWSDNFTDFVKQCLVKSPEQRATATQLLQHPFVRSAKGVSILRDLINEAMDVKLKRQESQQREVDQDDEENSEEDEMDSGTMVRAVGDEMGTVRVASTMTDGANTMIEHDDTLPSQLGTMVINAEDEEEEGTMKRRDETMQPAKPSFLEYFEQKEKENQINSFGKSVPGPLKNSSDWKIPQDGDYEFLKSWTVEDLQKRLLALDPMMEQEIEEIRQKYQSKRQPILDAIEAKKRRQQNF
Assay: MST1 biochemical LanthaScreen Eu Kinase Binding Assay
Conditions: read-out: Kinase Binding assay-MST1 IC50
pIC50: −log10 of the molar value.
Recorded pIC50 for the following compounds

Compound: CCOc1cc2ncc(C#N)c(Nc3ccc(OCc4ncccc4-c4ccccc4)c(Cl)c3)c2cc1NC(=O)CCCN(C)C [Example 72]
pIC50: 6.00 to 7.00
//
Compound: CCOc1cc2ncc(C#N)c(Nc3ccc(OCc4cccc(Br)n4)c(Cl)c3)c2cc1NC(=O)CCCN(C)C [Example 3]
pIC50: > 7.00
//
Compound: CCOc1cc2ncc(C#N)c(Nc3ccc(OCc4ccccn4)c(Cl)c3)c2cc1NC(=O)CCN(C)C [Example 96]
pIC50: > 7.00

Recorded pIC50 (compound Cc1cccnc1COc1ccc(Nc2ccnc3ccc(NC(=O)CCCN(C)C)cc23)c(Cl)c1 [Example 147] ): 5.00 to 6.00

Recorded pIC50 (compound CCOc1cc2ncc(C#N)c(Nc3ccc(OCc4ccc5c(n4)OCCC5)c(Cl)c3)c2cc1NC(=O)CCCN(C)C [Example 59] ): 5.00 to 6.00

Recorded pIC50 (compound CCOc1cc2ncc(C#N)c(Nc3ccc(OCc4ncccc4C)cc3F)c2cc1NC(=O)CCCN(C)C [Example 23] ): > 7.00

Recorded pIC50 (compound CCOc1cc2ncc(C#N)c(Nc3ccc(OCc4cnc5c(c4)OCCO5)c(Cl)c3)c2cc1NC(=O)CCCN(C)C [Example 43] ): 6.00 to 7.00

Recorded pIC50 (compound CCOc1cc2ncc(C#N)c(Nc3ccc(OCc4ccc(C(F)(F)F)cn4)c(Cl)c3)c2cc1NC(=O)CCCN(C)C [Example 53] ): 6.00 to 7.00

Recorded pIC50 (compound CCOc1cc2ncc(C#N)c(Nc3cccc(OC)c3)c2cc1NC(C)=O [Example 131] ): 6.00 to 7.00

Recorded pIC50 (compound CCOc1cc2ncc(C#N)c(Nc3ccc(NC(C)c4ccccc4)c(Cl)c3)c2cc1NC(=O)CCCN(C)C (centres unmarked) [Example 114] ): 5.00 to 6.00

Recorded pIC50 (compound CCOc1cc2ncc(C#N)c(Nc3ccc(OCc4ncccc4C(F)(F)F)cc3Cl)c2cc1NC(=O)CCCN(C)C [Example 81] ): > 7.00

Recorded pIC50 (compound CCOc1cc2ncc(C#N)c(Nc3ccc(OCc4cnc(C)cn4)c(Cl)c3)c2cc1NC(=O)CCCN(C)C [Example 60] ): 6.00 to 7.00

Recorded pIC50 (compound CCOc1cc2ncc(C#N)c(Nc3ccc(OCc4cccc(Cl)n4)c(Cl)c3)c2cc1NC(=O)CCCN(C)C [Example 7] ): > 7.00
